meta.source: patent US20220056094A1

Listed here are binders together with their documented relative biological activity (CTLL2 cell proliferation).
Biological target: T1, high-affinity receptor IL-2Rα/β/γ on CTLL2 cells (mouse-derived cell line) (mouse, UniProt P01590 22-268; P16297 27-539; P34902 23-369)
T1 sequence (looked up) 1: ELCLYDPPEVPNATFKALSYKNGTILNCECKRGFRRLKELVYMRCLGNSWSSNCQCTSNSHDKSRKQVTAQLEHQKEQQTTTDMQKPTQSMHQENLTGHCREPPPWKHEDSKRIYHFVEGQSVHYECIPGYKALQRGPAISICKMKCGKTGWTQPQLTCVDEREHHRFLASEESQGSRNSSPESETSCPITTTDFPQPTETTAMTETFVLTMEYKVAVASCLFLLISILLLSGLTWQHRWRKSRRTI
T1 sequence (looked up) 2: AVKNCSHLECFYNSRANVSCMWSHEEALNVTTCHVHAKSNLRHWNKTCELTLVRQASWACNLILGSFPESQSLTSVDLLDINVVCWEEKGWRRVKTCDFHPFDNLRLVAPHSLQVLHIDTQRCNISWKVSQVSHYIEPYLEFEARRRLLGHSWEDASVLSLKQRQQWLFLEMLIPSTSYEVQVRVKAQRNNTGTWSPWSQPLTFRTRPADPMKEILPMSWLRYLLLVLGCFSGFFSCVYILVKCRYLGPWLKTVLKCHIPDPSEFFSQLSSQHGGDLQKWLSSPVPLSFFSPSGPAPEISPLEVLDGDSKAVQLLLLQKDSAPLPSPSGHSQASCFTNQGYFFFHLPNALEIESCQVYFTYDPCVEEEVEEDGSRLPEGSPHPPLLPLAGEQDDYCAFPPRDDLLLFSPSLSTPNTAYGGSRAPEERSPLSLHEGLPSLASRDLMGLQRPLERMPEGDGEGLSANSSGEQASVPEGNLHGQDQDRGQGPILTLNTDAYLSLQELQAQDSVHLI
T1 sequence (looked up) 3: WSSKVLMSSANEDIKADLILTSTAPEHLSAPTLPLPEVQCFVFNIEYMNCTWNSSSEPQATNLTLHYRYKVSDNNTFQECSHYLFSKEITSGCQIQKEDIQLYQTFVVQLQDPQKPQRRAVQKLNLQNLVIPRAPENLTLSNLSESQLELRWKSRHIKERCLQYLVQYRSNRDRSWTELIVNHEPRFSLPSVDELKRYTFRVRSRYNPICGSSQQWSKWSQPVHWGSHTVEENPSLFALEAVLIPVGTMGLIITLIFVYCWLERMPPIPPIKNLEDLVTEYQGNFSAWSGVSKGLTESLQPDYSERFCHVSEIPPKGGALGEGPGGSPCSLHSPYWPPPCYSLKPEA
Assay: cell-based or functional assay
# output: bare number, implied unit %

IL-2-09 (Y45A/L72G) (ligand, The entry already carries the mutations and C125A and begins with M. Made in E. coli) MAPTSSSTKKTQLQLEHLLLDLQMILNGINNYKNPKLTRMLTFKFAMPKKATELKHLQCLEEELKPLEEVLNGAQSKNFHLRPRDLISNINVIVLELKGSETTFMCEYADETATIVEFLNRWITFAQSIISTLT	2

Consider the record given below.
Reported relative biological activity (CTLL2 cell proliferation), binder IL-2-05 (G27C/F78C) (ligand, The entry already carries the mutations and C125A and begins with M. Made in E. coli) MAPTSSSTKKTQLQLEHLLLDLQMILNCINNYKNPKLTRMLTFKFYMPKKATELKHLQCLEEELKPLEEVLNLAQSKNCHLRPRDLISNINVIVLELKGSETTFMCEYADETATIVEFLNRWITFAQSIISTLT : ____
229
